biological target: 20S proteasome; assay: Compound was evaluated for inhibitory activity against 20S proteasome from human liver and brain
Where a SMILES comes first, the peptide text is derived from it. The star is where a group is joined. MeOSuc = COC(=O)CCC(=O)*
Listed next: entries and their corresponding IC50.

compound: COC(=O)CCCCCCCC(=O)NC(CCC/N=C(\N)N[N+](=O)[O-])C(=O)NC(C=O)CC(C)C (configuration not stated)
quantity unit: nM
limit operator: =
IC50: 40
--
compound: COC(=O)CCCCCCCC(=O)NC(CCC/N=C(\N)NS(=O)(=O)c1c(C)cc(OC)c(C)c1C)C(=O)NC(C=O)CC(C)C (configuration not stated)
quantity unit: nM
limit operator: =
IC50: 95
--
compound: CC(C)CC(C=O)NC(=O)C(CCC/N=C(\N)N[N+](=O)[O-])NC(=O)C(CCCCCCCCN1C(=O)c2ccccc2C1=O)C1CCCC1 (configuration not stated)
quantity unit: nM
limit operator: =
IC50: 2
--
compound: CC(C)CC(C=O)NC(=O)C(CCC/N=C(\N)N[N+](=O)[O-])NC(=O)C(CCCCCCCCC#N)C1CCCC1 (configuration not stated)
quantity unit: nM
limit operator: =
IC50: 6
--
compound: COC(=O)CCC(=O)N[C@@H](CCC(=O)O)C(=O)N[C@H](C(=O)N[C@@H](CCCCN)C(=O)N[C@@H](Cc1ccccc1)C(=O)O)C(C)C (MeOSuc-EVKF-OH)
quantity unit: nM
limit operator: =
IC50: 1000
--
compound: COC(=O)CCCCCCCC(=O)N[C@H](CCC/N=C(\N)NS(=O)(=O)c1c(C)c(C)c2c(c1C)CCC(C)(C)O2)C(=O)NC(C=O)CC(C)C (some centres not stated)
quantity unit: nM
limit operator: >
IC50: 3000
--
compound: COC(=O)CCCCCCCC(=O)NC(CCC/N=C(\N)NS(=O)(=O)c1c(C)c(C)c2c(c1C)CCC(C)(C)O2)C(=O)NC(C=O)CC(C)C (single isomer, unassigned)
quantity unit: nM
limit operator: =
IC50: 20

Ref: ChEMBL document CHEMBL1128409
